Entries and their EC50
Tested on: Human RSV-A (“Long” strain)
Assay: RSV in vitro cytoprotection assay in HEp-2 cells (ATPlite read-out)
Type: cell-based
Conditions: human respiratory syncytial virus, 96 h; HEp-2 cells, genotype A “Long” strain RSV, 4-day incubation, ATPlite; read-out: Human RSV-A (“Long” strain) EC50
Experimental: RSV is a single stranded negative sense RNA virus that causes respiratory tract infections which can be dangerous to infants, the elderly, and immunosuppressed individuals. Currently there is no vaccine, and therapeutic options are both costly and of limited effectiveness. These approved treatments are Ribavirin, and Palivizumab/Synagis (a monoclonal antibody). […] Cell viability is measured several days later along with separate measurements of compound cytotoxicity. […]
result_type: EC50

Cc1ccc(C(=O)Nc2ccc(C(=O)N3CCC(c4ccc(C(=O)NC5CCC5)s4)=Cc4ccccc43)cc2)c(N2CC3(CCOCC3)C2)n1: < 10 nM
Cc1cnc(N2CC3(CCOCC3)C2)c(C(=O)Nc2ccc(C(=O)N3CCC(c4ccc(C(=O)Nc5c(F)cccc5F)s4)=Cc4ccccc43)cc2)c1: < 10 nM
Cc1cnc(N2CC3(CCOCC3)C2)c(C(=O)Nc2ccc(C(=O)N3CCC(c4ccc(C(=O)Nc5c(C)cccc5F)cc4)=Cc4ccccc43)cc2)c1: < 10 nM
CC1=C(c2ccc(C(=O)Nc3c(C)cccc3F)s2)CCN(C(=O)c2ccc(NC(=O)c3cc(C)cnc3N3CC4(CCOCC4)C3)cc2)c2ccccc21: > 50 nM
Cc1cnc(N2CC3(CCOCC3)C2)c(C(=O)Nc2ccc(C(=O)N3CCC(c4ccc(C(=O)NC5CCC5)s4)=Cc4ccccc43)cc2)c1: < 10 nM
CC1=C(c2ccc(C(=O)NC3CC3)s2)CCN(C(=O)c2ccc(NC(=O)c3cc(C)cnc3N3CC4(CCOCC4)C3)cc2)c2ccccc21: > 50 nM
